- Target Or System: MAL^TIR (Homo sapiens, UniProt P58753)
- Construct: MAL (residues 79–221); 6xHis; made in house; host or cells: E. coli BL21 (DE3)
- Sequence (P58753 79-221): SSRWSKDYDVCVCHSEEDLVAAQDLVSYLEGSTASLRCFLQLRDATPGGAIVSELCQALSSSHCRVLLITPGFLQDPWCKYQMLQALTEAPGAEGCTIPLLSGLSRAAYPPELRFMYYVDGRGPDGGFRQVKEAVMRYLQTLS
- Experimental Protocol: T‐Surf phage library (P8 and P3) selection against MAL^TIR, four rounds, NGS read counts
- Assay type: binding
- Conditions: P3_MAL: rank by count after grouping
Reported Metric: Rank (after)

GWFLNKLSQLILKKEK = 100
YAFTAICIVIWCSVA = 133
RGFLSNLGHHLQAKDH = 440
YAFKGNLHRYLVQRGV = 162
YAFTGHLHQFHSWV = 480
RRLKWKDALHQFHSWV = 124
SLFLSSRFKDDADLVGQ = 433
SFFGINCVIICQRRS = 126
YAFTGHLHRFWCSVA = 158
RLMKWKEALHPFHSWV = 180

[I] FLNFRGLDVRNYFLA
[II] PNLRTNVLNYLIRTKT
[III] YFWHALKNALAVNNDV
QUERY: I would appreciate it if you could sort these 3 sequences by Rank (after), starting from the smallest number. # list labels per requested ordering
RESULT: III, II, I
(III: 97, II: 141, I: 408)

[P] VRHTFAGYLYDALHRNRI
[Q] AFTGHLHRYLVQRGV
[R] PNLSPKVLNYLMRTKT
QUERY: Place the items in sequence of falling Rank (after). # list labels per requested ordering
RESULT: P, R, Q
(P: 404, R: 181, Q: 121)

[A] RGLLSHLRHHLLGKDH
[B] KMQKWKDALYEAANLSGW
[C] PNLRTKVLNYLMRTK
QUERY: Place the items in sequence of falling Rank (after). # list labels per requested ordering
RESULT: A, C, B
(A: 450, C: 174, B: 105)

[1] HLLDKLRSNGISPFID
[2] YAFTRHLHRYLVQSGV
QUERY: Which record shows the lower Rank (after): the first, 1 , or the second, 2 ? Refer to your chosen item by its label in the answer.
RESULT: 2
(2: 147, 1: 461)

* * *

- Target Or System: MyD88^TIR (Homo sapiens)
- Construct: MyD88 (residues 148–296); 6xHis; made in house; host or cells: E. coli BL21 (DE3)
- Sequence (Q99836 148-296): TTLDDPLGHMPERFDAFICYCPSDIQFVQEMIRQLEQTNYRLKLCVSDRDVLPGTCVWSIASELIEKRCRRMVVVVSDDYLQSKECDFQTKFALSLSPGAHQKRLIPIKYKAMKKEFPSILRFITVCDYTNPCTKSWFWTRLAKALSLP
- Experimental Protocol: T‐Surf phage library (P8 and P3) selection against MyD88^TIR, four rounds, NGS read counts
- Format: binding
- Conditions: P3 library, selection against MyD88, rank after grouping
Reported Metric: P3_MyD88 Rank (after)

FLSYREGLWRLLELSKK = 498
LSRVPSGHVIPGFVAI = 529
LLAHEISKNMKIFATI = 523
PEKANGGENAFFNNIV = 566
KLDSARMRKVQRLRET = 576
SFFGINCVIICQRRS = 545
NSFREGLWRLVELSKK = 535
LVAQEISKIKTMLATT = 561
SSFREGLWRLLGLRKK = 553
KEPERYQFAIPERDFP = 540
SENYATSTWAPDELVR = 496
LKCGEPYFWSKLRYSI = 578
YAFTGHLCRCLVLRGA = 506
LKVESWRQSREKAGKL = 512
PEKDNGGEIAFINNLV = 547
YTALTIAAFIPFVIM = 574
SSFRGGLWRLLELRKE = 528
FLSYLALEKRFSPIGQ = 515
SEMRVVEDGSVSPLEM = 495
RKGDLISDELRIPLEE = 526
SSFRERLWRPVALSKK = 493
LSRVTSVHDARGLGGI = 564
LGTHEISKEMKIFATI = 571
PKVGSWRQALEKAGKL = 560
YYLDPSHLRKHSGEIG = 558
SENYATSPWRWMNWC = 541
NDLLHVWSSKANSLVG = 527
DHHLDLPRGKAIKPEILGH = 483
SELRVVDDGSVSPPNL = 570
LVAHRMSKKMKNVATI = 513
LNGAIRIFGANCVMR = 494
LVAHEISKKRKIFATS = 511
LKEESWRRAQEKAGKL = 531
NQWRFGSKVDAWKAAL = 577
SSCREGLWSLLELSKK = 565
YLRWGYPWFGDRLRFA = 539
KWLWDKLIYARSRNPH = 490
YTALTNSGFHIFSANG = 497
SSWREGLCRLLELRNK = 501
YTALPNSGFHTIRDNE = 552
LVANEISKKIKIFAII = 533
SENYATSPWALDELLIAIEE = 519
LKVESWRDALTAAANLSGW = 489
YTALSYRGFHDFRGNE = 504
HSEWACHELYFSHFWP = 551
QYSDTLLEHTSKFPA = 492
AFLYTFLINLTHPTNF = 537
DHHLDLPRGKAIKE = 550
EWIREQLRPALKNVC = 520
RVAHEISTKMKIFATI = 559
YLKWGSPWFWDRLRFGPIGQ = 568
SLRKNVVSNLLEEFKR = 524
YNLISHLYDAMHRNRI = 549
LVAHEISKKLKNFPTI = 518
LVAMKLPRACLKRLK = 505
YLKWGYRWYWDRLRFA = 543
